tested on: Escherichia coli; assay: Induction of Escherichia coli pUC19 DNA photocleavage assessed as conversion of supercoiled DNA to linear and nicked form of DNA at 10 uM treated for 60 mins followed by irradiation at 588 nm for 60 mins by agarose gel electrophoresis (reference value: 15%)

- line.notation: "CN1/C(=C/C=C(Br)/C=C/C2=[N+](C)c3ccc4ccccc4c3C2(C)C)C(C)(C)c2c1ccc1ccccc21"
  Activity / %: 55
- line.notation: "CN1/C(=C/C=C/C=C/C2=[N+](C)c3ccc4ccccc4c3C2(C)C)C(C)(C)c2c1ccc1ccccc21"
  Activity / %: 25
- line.notation: "CC1(C)C(/C=C/C(Cl)=C/C=C2/N(CCC[N+](C)(C)C)c3ccc4ccccc4c3C2(C)C)=[N+](CCC[N+](C)(C)C)c2ccc3ccccc3c21"
  Activity / %: 55
- line.notation: "CC1(C)C(/C=C/C(Br)=C/C=C2/N(CCC[N+](C)(C)C)c3ccc4ccccc4c3C2(C)C)=[N+](CCC[N+](C)(C)C)c2ccc3ccccc3c21"
  Activity / %: 47
- line.notation: "CC1(C)C(/C=C/C=C/C=C2/N(CCC[N+](C)(C)C)c3ccc4ccccc4c3C2(C)C)=[N+](CCC[N+](C)(C)C)c2ccc3ccccc3c21"
  Activity / %: 20
- line.notation: "CN1/C(=C/C=C(Cl)/C=C/C2=[N+](C)c3ccc4ccccc4c3C2(C)C)C(C)(C)c2c1ccc1ccccc21"
  Activity / %: 46
- line.notation: "CC1(C)C(/C=C/C(Cl)=C/C=C2/N(CCCc3ccccc3)c3ccc4ccccc4c3C2(C)C)=[N+](CCCc2ccccc2)c2ccc3ccccc3c21"
  Activity / %: 13

---

In this section we review reported Activity values for a set of molecules.
system: Escherichia coli; assay: Induction of Escherichia coli pUC19 DNA photocleavage assessed as conversion of supercoiled DNA to linear and nicked form of DNA at 10 uM treated for 60 mins followed by irradiation at 623 nm for 60 mins by agarose gel electrophoresis (reference value: 10%)

- line.notation: "CC1(C)C(/C=C/C(Br)=C/C=C2/N(CCC[N+](C)(C)C)c3ccc4ccccc4c3C2(C)C)=[N+](CCC[N+](C)(C)C)c2ccc3ccccc3c21"
  Activity: "56%"
- line.notation: "CC1(C)C(/C=C/C(Cl)=C/C=C2/N(CCCc3ccccc3)c3ccc4ccccc4c3C2(C)C)=[N+](CCCc2ccccc2)c2ccc3ccccc3c21"
  Activity: "8%"
- line.notation: "CN1/C(=C/C=C/C=C/C2=[N+](C)c3ccc4ccccc4c3C2(C)C)C(C)(C)c2c1ccc1ccccc21"
  Activity: "29%"
- line.notation: "CN1/C(=C/C=C(Cl)/C=C/C2=[N+](C)c3ccc4ccccc4c3C2(C)C)C(C)(C)c2c1ccc1ccccc21"
  Activity: "42%"
- line.notation: "CC1(C)C(/C=C/C(Cl)=C/C=C2/N(CCC[N+](C)(C)C)c3ccc4ccccc4c3C2(C)C)=[N+](CCC[N+](C)(C)C)c2ccc3ccccc3c21"
  Activity: "48%"
- line.notation: "CC1(C)C(/C=C/C=C/C=C2/N(CCC[N+](C)(C)C)c3ccc4ccccc4c3C2(C)C)=[N+](CCC[N+](C)(C)C)c2ccc3ccccc3c21"
  Activity: "41%"
- line.notation: "CN1/C(=C/C=C(Br)/C=C/C2=[N+](C)c3ccc4ccccc4c3C2(C)C)C(C)(C)c2c1ccc1ccccc21"
  Activity: "46%"

---

tested on: Escherichia coli; assay: Induction of Escherichia coli pUC19 DNA photocleavage assessed as conversion of supercoiled DNA to linear and nicked form of DNA at 10 uM treated for 60 mins followed by irradiation at 700 nm for 60 mins by agarose gel electrophoresis (reference value: 3%)
Rule: true (1) for Activity not less than 50%, false (0) for anything less.

- line.notation: "CN1/C(=C/C=C/C=C/C2=[N+](C)c3ccc4ccccc4c3C2(C)C)C(C)(C)c2c1ccc1ccccc21"
  assigned.class: "false (0)"
- line.notation: "CC1(C)C(/C=C/C(Cl)=C/C=C2/N(CCC[N+](C)(C)C)c3ccc4ccccc4c3C2(C)C)=[N+](CCC[N+](C)(C)C)c2ccc3ccccc3c21"
  assigned.class: "true (1)"
- line.notation: "CN1/C(=C/C=C(Cl)/C=C/C2=[N+](C)c3ccc4ccccc4c3C2(C)C)C(C)(C)c2c1ccc1ccccc21"
  assigned.class: "false (0)"
- line.notation: "CC1(C)C(/C=C/C(Cl)=C/C=C2/N(CCCc3ccccc3)c3ccc4ccccc4c3C2(C)C)=[N+](CCCc2ccccc2)c2ccc3ccccc3c21"
  assigned.class: "false (0)"
- line.notation: "CC1(C)C(/C=C/C(Br)=C/C=C2/N(CCC[N+](C)(C)C)c3ccc4ccccc4c3C2(C)C)=[N+](CCC[N+](C)(C)C)c2ccc3ccccc3c21"
  assigned.class: "true (1)"
- line.notation: "CC1(C)C(/C=C/C=C/C=C2/N(CCC[N+](C)(C)C)c3ccc4ccccc4c3C2(C)C)=[N+](CCC[N+](C)(C)C)c2ccc3ccccc3c21"
  assigned.class: "false (0)"

---

In this section, each of the molecules is paired with its reported Activity.
test system: Escherichia coli; assay: Induction of Escherichia coli pUC19 DNA cleavage assessed as conversion of supercoiled DNA to linear and nicked form of DNA at 10 uM after 60 mins by agarose gel electrophoresis

- line.notation: "CN1/C(=C/C=C(Cl)/C=C/C2=[N+](C)c3ccc4ccccc4c3C2(C)C)C(C)(C)c2c1ccc1ccccc21"
  Activity (%): 2
- line.notation: "CC1(C)C(/C=C/C(Cl)=C/C=C2/N(CCC[N+](C)(C)C)c3ccc4ccccc4c3C2(C)C)=[N+](CCC[N+](C)(C)C)c2ccc3ccccc3c21"
  Activity (%): 5
- line.notation: "CC1(C)C(/C=C/C(Br)=C/C=C2/N(CCC[N+](C)(C)C)c3ccc4ccccc4c3C2(C)C)=[N+](CCC[N+](C)(C)C)c2ccc3ccccc3c21"
  Activity (%): 7
- line.notation: "CN1/C(=C/C=C(Br)/C=C/C2=[N+](C)c3ccc4ccccc4c3C2(C)C)C(C)(C)c2c1ccc1ccccc21"
  Activity (%): 3
- line.notation: "CC1(C)C(/C=C/C(Cl)=C/C=C2/N(CCCc3ccccc3)c3ccc4ccccc4c3C2(C)C)=[N+](CCCc2ccccc2)c2ccc3ccccc3c21"
  Activity (%): 4
- line.notation: "CC1(C)C(/C=C/C=C/C=C2/N(CCC[N+](C)(C)C)c3ccc4ccccc4c3C2(C)C)=[N+](CCC[N+](C)(C)C)c2ccc3ccccc3c21"
  Activity (%): 1
- line.notation: "CN1/C(=C/C=C/C=C/C2=[N+](C)c3ccc4ccccc4c3C2(C)C)C(C)(C)c2c1ccc1ccccc21"
  Activity (%): 2

---

Measured Activity, listed per entry.
system: Escherichia coli; assay: Induction of Escherichia coli pUC19 DNA photocleavage assessed as conversion of supercoiled DNA to linear and nicked form of DNA at 10 uM treated for 60 mins followed by irradiation at 575 nm for 60 mins by agarose gel electrophoresis (reference value: 6 +/- 2%)

- line.notation: "CC1(C)C(/C=C/C(Cl)=C/C=C2/N(CCC[N+](C)(C)C)c3ccc4ccccc4c3C2(C)C)=[N+](CCC[N+](C)(C)C)c2ccc3ccccc3c21"
  Activity [%]: 91
- line.notation: "CN1/C(=C/C=C/C=C/C2=[N+](C)c3ccc4ccccc4c3C2(C)C)C(C)(C)c2c1ccc1ccccc21"
  Activity [%]: 59
- line.notation: "CC1(C)C(/C=C/C(Br)=C/C=C2/N(CCC[N+](C)(C)C)c3ccc4ccccc4c3C2(C)C)=[N+](CCC[N+](C)(C)C)c2ccc3ccccc3c21"
  Activity [%]: 78
- line.notation: "CC1(C)C(/C=C/C(Cl)=C/C=C2/N(CCCc3ccccc3)c3ccc4ccccc4c3C2(C)C)=[N+](CCCc2ccccc2)c2ccc3ccccc3c21"
  Activity [%]: 13

---

system: Escherichia coli; assay: Induction of Escherichia coli pUC19 DNA photocleavage assessed as conversion of supercoiled DNA to linear and nicked form of DNA at 10 uM treated for 60 mins followed by irradiation at 575 nm for 60 mins by agarose gel electrophoresis (reference value: 6 +/- 2%)

- line.notation: "CN1/C(=C/C=C(Br)/C=C/C2=[N+](C)c3ccc4ccccc4c3C2(C)C)C(C)(C)c2c1ccc1ccccc21"
  Activity: "86%"
- line.notation: "CC1(C)C(/C=C/C=C/C=C2/N(CCC[N+](C)(C)C)c3ccc4ccccc4c3C2(C)C)=[N+](CCC[N+](C)(C)C)c2ccc3ccccc3c21"
  Activity: "47%"
- line.notation: "CN1/C(=C/C=C(Cl)/C=C/C2=[N+](C)c3ccc4ccccc4c3C2(C)C)C(C)(C)c2c1ccc1ccccc21"
  Activity: "83%"

---

system: Escherichia coli; assay: Induction of Escherichia coli pUC19 DNA photocleavage at 10 uM treated for 60 mins followed by irradiation at 575 nm for 60 mins by agarose gel electrophoresis in presence of sodium azide
Calls of active or inactive are those of the source. No cut-off for these calls is given here.

- line.notation: "CN1/C(=C/C=C(Br)/C=C/C2=[N+](C)c3ccc4ccccc4c3C2(C)C)C(C)(C)c2c1ccc1ccccc21"
  Activity: "inactive"
- line.notation: "CC1(C)C(/C=C/C(Cl)=C/C=C2/N(CCC[N+](C)(C)C)c3ccc4ccccc4c3C2(C)C)=[N+](CCC[N+](C)(C)C)c2ccc3ccccc3c21"
  Activity: "inactive"
- line.notation: "CN1/C(=C/C=C(Cl)/C=C/C2=[N+](C)c3ccc4ccccc4c3C2(C)C)C(C)(C)c2c1ccc1ccccc21"
  Activity: "inactive"
- line.notation: "CC1(C)C(/C=C/C(Br)=C/C=C2/N(CCC[N+](C)(C)C)c3ccc4ccccc4c3C2(C)C)=[N+](CCC[N+](C)(C)C)c2ccc3ccccc3c21"
  Activity: "inactive"
- line.notation: "CC1(C)C(/C=C/C=C/C=C2/N(CCC[N+](C)(C)C)c3ccc4ccccc4c3C2(C)C)=[N+](CCC[N+](C)(C)C)c2ccc3ccccc3c21"
  Activity: "inactive"
- line.notation: "CN1/C(=C/C=C/C=C/C2=[N+](C)c3ccc4ccccc4c3C2(C)C)C(C)(C)c2c1ccc1ccccc21"
  Activity: "inactive"
